Values from paper PMC12073438

Assay: Stereoselective pharmacokinetics in rat plasma
Format: in vivo, Sprague–Dawley rats
Details: Sprague-Dawley, rat, plasma, iv, 4 mg/kg, i.v. of farrerol racemate (4 mg/kg), read-out: Cmax
measured-property: Cmax (ng/mL)
Numbers only, in ng/mL.

Prompt: Report Cmax for Cc1c(O)c(C)c2c(c1O)C(=O)CC(c1ccc(O)cc1)O2 (single isomer, unassigned; (+)) [(+)-farrerol]
Response: 2660

----------
Molecular target: CYP2C9 (Homo sapiens, UniProt P11712)
Sequence (P11712 whole entry): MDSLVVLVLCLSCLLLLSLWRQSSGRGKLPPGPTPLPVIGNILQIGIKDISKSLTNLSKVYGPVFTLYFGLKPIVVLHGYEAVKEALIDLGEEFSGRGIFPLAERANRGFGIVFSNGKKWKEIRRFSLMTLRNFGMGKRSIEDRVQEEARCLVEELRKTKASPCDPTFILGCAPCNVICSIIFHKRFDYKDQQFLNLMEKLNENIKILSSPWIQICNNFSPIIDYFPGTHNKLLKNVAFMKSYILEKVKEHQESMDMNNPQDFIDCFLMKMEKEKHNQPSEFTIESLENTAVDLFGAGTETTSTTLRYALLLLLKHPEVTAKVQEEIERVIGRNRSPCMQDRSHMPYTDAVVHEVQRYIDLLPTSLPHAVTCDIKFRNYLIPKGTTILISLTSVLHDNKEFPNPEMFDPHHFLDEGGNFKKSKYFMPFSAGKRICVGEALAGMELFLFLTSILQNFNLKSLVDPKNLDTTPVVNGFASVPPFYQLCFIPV
Experiment: CYP inhibition in liver microsomes (diclofenac)
Details: CYP 2C9, marker substrate diclofenac
measured-property: pIC50
Give bare numbers, as −log10 of the molar value.

Prompt: Report pIC50 for Nc1ccc(S(=O)(=O)Nc2ccnn2-c2ccccc2)cc1 [sulfaphenazole, reference compound]
Response: 6.66

----------
Assay: Stereoselective pharmacokinetics in rat plasma
Format: in vivo, Sprague–Dawley rats
Conditions: Sprague-Dawley, rat, plasma, iv, 4 mg/kg, i.v. of farrerol racemate (4 mg/kg)
measured-property: half-life (h)
Give bare numbers, in h.

Prompt: Report half-life for Cc1c(O)c(C)c2c(c1O)C(=O)CC(c1ccc(O)cc1)O2 (single isomer, unassigned; (+)) [(+)-farrerol]
Response: 10.7

----------
Test: Stereoselective pharmacokinetics in rat plasma
Format: in vivo, Sprague–Dawley rats
Conditions: Sprague-Dawley, rat, plasma, po, 75 mg/kg, i.g. of farrerol racemate (75 mg/kg), read-out: MRT(0–t)
Procedure: The pharmacokinetic data were optimally characterized by a noncompartmental model. […] Mass detection was conducted using a triple quadrupole mass spectrometer (Waters Co., USA) equipped with an electrospray ionization (ESI) source. […] The m/z 299→179 for enantiomers and m/z 267→252 for IS were selected as detecting ions for quantitation. […]
measured-property: MRT last (h)
Give bare numbers, in h.

Prompt: Report MRT last for Cc1c(O)c(C)c2c(c1O)C(=O)CC(c1ccc(O)cc1)O2 (single isomer, unassigned; (+)) [(+)-farrerol]
Response: 6.27

----------
Assay: Stereoselective pharmacokinetics in rat plasma
Type: in vivo, Sprague–Dawley rats
Details: Sprague-Dawley, rat, plasma, iv, 4 mg/kg, i.v. of farrerol racemate (4 mg/kg), read-out: MRT(0–t)
measured-property: MRT last (h)
Numbers only, in h.

Prompt: Report MRT last for Cc1c(O)c(C)c2c(c1O)C(=O)CC(c1ccc(O)cc1)O2 (single isomer, unassigned; (+)) [(+)-farrerol]
Response: 2.7

----------
Measurement record for CYP2C19 (Homo sapiens, UniProt P33261); quantity recorded: IC50.

- molecule: "Cc1c(O)c(C)c2c(c1O)C(=O)CC(c1ccc(O)cc1)O2 (single isomer, unassigned; (-)) [(−)-farrerol]"
  IC50: "2070 nM"

Now, please, on to the next molecule.
Prompt: Report IC50 for Cc1c(O)c(C)c2c(c1O)C(=O)CC(c1ccc(O)cc1)O2 (single isomer, unassigned; (+)) [(+)-farrerol]
Response: 1610 nM
